B1: C9orf9 (parent)
chain: LTKASLKPRGCSKPPWRPPGGKL

variants of: B1; experiment: protein stability index of a GFP-peptide fusion (GPS, HEK-293T) (PSI 1-6); higher = more stable; conditions: c terminus: native;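 also: lentivirally expressed fusions sorted by FACS into six bins by GFP to DsRed ratio, PSI derived from sequencing read proportions per bin multiplied by bin number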
protein stability index for assorted variants

S12G ... 1.99
P15V ... 2.02

Next variant, please.
protein stability index lookup needed for `K22F` , thanks.
2.03

The values you see were collected from the supplement of paper PMC10567573.
